- System Under Test: KRAS (Homo sapiens)
- Construct: His6-tagged human KRas Isoform 4B (residues 1-169); His6; made in house; host or cells: E. coli BL21(DE3), PQE80 vector
- Sequence (P01116 1-169 isoform P01116-2): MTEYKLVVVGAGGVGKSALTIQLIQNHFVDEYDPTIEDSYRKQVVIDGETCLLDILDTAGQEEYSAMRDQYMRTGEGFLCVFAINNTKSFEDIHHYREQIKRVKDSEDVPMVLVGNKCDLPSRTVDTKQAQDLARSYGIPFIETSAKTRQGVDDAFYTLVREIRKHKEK
- Protocol Details: B-RAP surface immunofluorescent assay, PCC ligand KRas EC50
- Format: binding
- Experimental Context: 10 μM KRas well of plate #1, pixel by pixel, right part of centroid
Readout Type: avg F635, Right Part Centroid

molecule="CC(C)[C@@H]1NC(=O)[C@@H](N)Cc2cn(nn2)CCCC[C@@H](C(=O)NCCOCCOCCOCCOCCOCCC(=O)NCCNC(=O)CCCC[C@@H]2SC[C@@H]3NC(=O)NC32)NC(=O)[C@H](Cc2ccc(O)cc2)NC(=O)[C@@H]2CCCN2C(=O)[C@H](C(C)C)NC(=O)[C@H](CCC(N)=O)NC1=O (single isomer, unassigned) [Ligand L7b, VQVPY]" readout_type="avg F635, Right Part Centroid" experimental_value=18781
molecule="CC(C)[C@@H]1NC(=O)[C@@H](N)Cc2cn(nn2)CCCC[C@@H](C(=O)NCCOCCOCCOCCOCCOCCC(=O)NCCNC(=O)CCCC[C@@H]2SC[C@@H]3NC(=O)NC32)NC(=O)[C@H](Cc2ccc(O)cc2)NC(=O)[C@@H]2CCCN2C(=O)[C@H](C(C)C)NC(=O)[C@H](CCC(N)=O)NC1=O (stereo partly drawn) [Ligand L7, VQVPY]" readout_type="avg F635, Right Part Centroid" experimental_value=57411
molecule="CCC(C)[C@@H]1NC(=O)CNC(=O)[C@H](Cc2cnc[nH]2)NC(=O)[C@@H](N)Cc2cn(nn2)CCCC[C@@H](C(=O)NCCOCCOCCOCCOCCOCCC(=O)NCCNC(=O)CCCC[C@@H]2SC[C@@H]3NC(=O)N[C@@H]32)NC(=O)CNC(=O)[C@H](C(C)C)NC1=O (single isomer, unassigned) [Ligand L1b, HGIVG]" readout_type="avg F635, Right Part Centroid" experimental_value=26959
molecule="NC(=O)CC[C@@H]1NC(=O)[C@@H](N)Cc2cn(nn2)CCCC[C@@H](C(=O)NCCOCCOCCOCCOCCOCCC(=O)NCCNC(=O)CCCC[C@@H]2SC[C@@H]3NC(=O)N[C@@H]32)NC(=O)[C@H](Cc2ccc(O)cc2)NC(=O)[C@H](Cc2ccccc2)NC(=O)[C@H](CC(N)=O)NC(=O)[C@H](CC(=O)O)NC1=O (single isomer, unassigned) [Ligand L9a, QDNFY]" readout_type="avg F635, Right Part Centroid" experimental_value=20045
molecule="CC(C)[C@@H]1NC(=O)[C@H](CCC(=O)O)NC(=O)CNC(=O)[C@@H](N)Cc2cn(nn2)CCCC[C@@H](C(=O)NCCOCCOCCOCCOCCOCCC(=O)NCCNC(=O)CCCC[C@@H]2SC[C@@H]3NC(=O)N[C@@H]32)NC(=O)[C@@H]2CCCN2C(=O)[C@H](C(C)C)NC1=O (single isomer, unassigned) [Ligand L3a, GEVVP]" readout_type="avg F635, Right Part Centroid" experimental_value=8811
molecule="CC(C)[C@@H]1NC(=O)[C@H](CCC(=O)O)NC(=O)[C@H](C(C)C)NC(=O)[C@@H](N)Cc2cn(nn2)CCCC[C@@H](C(=O)NCCOCCOCCOCCOCCOCCC(=O)NCCNC(=O)CCCC[C@@H]2SC[C@@H]3NC(=O)N[C@@H]32)NC(=O)[C@@H]2CCCN2C(=O)[C@H](Cc2ccc(O)cc2)NC1=O (single isomer, unassigned) [Ligand L5b, VEVYP]" readout_type="avg F635, Right Part Centroid" experimental_value=32448
